Consider the following binders; for each one, report its GBA EC50 Ratio (vs PYY(3-36)), [35S]GTPγS.
Target: T1, human Y2 receptor (human, UniProt P49146 1-381)
T1 sequence (looked up): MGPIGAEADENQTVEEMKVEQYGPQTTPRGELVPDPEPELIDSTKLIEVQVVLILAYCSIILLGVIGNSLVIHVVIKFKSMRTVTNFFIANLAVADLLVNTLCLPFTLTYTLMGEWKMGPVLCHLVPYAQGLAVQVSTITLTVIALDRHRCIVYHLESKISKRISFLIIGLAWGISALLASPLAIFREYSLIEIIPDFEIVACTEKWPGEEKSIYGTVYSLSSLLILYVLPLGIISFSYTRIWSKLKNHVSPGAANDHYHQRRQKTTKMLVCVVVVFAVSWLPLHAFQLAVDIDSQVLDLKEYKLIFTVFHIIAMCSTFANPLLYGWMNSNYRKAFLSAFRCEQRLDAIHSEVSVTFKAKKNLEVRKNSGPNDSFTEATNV
Assay: cell-based or functional assay
Non-standard residues stand in square brackets, D forms with d. No end group written: not given here. *: point of attachment. Cha = N[C@@H](CC1CCCCC1)C(=O)O; dCha = N[C@H](CC1CCCCC1)C(=O)O; 4Amb = NCc1ccc(C(=O)O)cc1; Orn = NCCC[C@H](N)C(=O)O; Bz = O=C(c1ccccc1)*
Write the answer as a number in ratio, unit excluded.

Given [4Amb]RPYINLITRQRY-NH2 (N-terminus assumed; SMILES CC[C@H](C)[C@H](NC(=O)[C@H](Cc1ccc(O)cc1)NC(=O)[C@@H]1CCCN1C(=O)[C@H](CCCNC(=N)N)NC(=O)c1ccc(CN)cc1)C(=O)N[C@@H](CC(N)=O)C(=O)N[C@@H](CC(C)C)C(=O)N[C@H](C(=O)N[C@H](C(=O)N[C@@H](CCCNC(=N)N)C(=O)N[C@@H](CCC(N)=O)C(=O)N[C@@H](CCCNC(=N)N)C(=O)N[C@@H](Cc1ccc(O)cc1)C(N)=O)[C@@H](C)O)[C@@H](C)CC, also called compound No. 19) [4-Aminomethylbenzoyl-[Pro26, Ile28,31]-PYY(25-36)] , state its recorded GBA EC50 Ratio (vs PYY(3-36)), [35S]GTPγS. 25

Given Bz-RH[Cha]INLRTRQR[Cha]-NH2 (SMILES CC[C@H](C)[C@H](NC(=O)[C@H](CC1CCCCC1)NC(=O)[C@H](Cc1c[nH]cn1)NC(=O)[C@H](CCCNC(=N)N)NC(=O)c1ccccc1)C(=O)N[C@@H](CC(N)=O)C(=O)N[C@@H](CC(C)C)C(=O)N[C@@H](CCCNC(=N)N)C(=O)N[C@H](C(=O)N[C@@H](CCCNC(=N)N)C(=O)N[C@@H](CCC(N)=O)C(=O)N[C@@H](CCCNC(=N)N)C(=O)N[C@@H](CC1CCCCC1)C(N)=O)[C@@H](C)O, also called compound No. 65) [Benzoyl-[Cha27,36, Ile28, Arg31]-PYY(25-36)] , state its recorded GBA EC50 Ratio (vs PYY(3-36)), [35S]GTPγS. 16

Given Ac-[dCha]RAYINLITRQRY-NH2 (SMILES CC[C@H](C)[C@H](NC(=O)[C@H](Cc1ccc(O)cc1)NC(=O)[C@H](C)NC(=O)[C@H](CCCNC(=N)N)NC(=O)[C@@H](CC1CCCCC1)NC(C)=O)C(=O)N[C@@H](CC(N)=O)C(=O)N[C@@H](CC(C)C)C(=O)N[C@H](C(=O)N[C@H](C(=O)N[C@@H](CCCNC(=N)N)C(=O)N[C@@H](CCC(N)=O)C(=O)N[C@@H](CCCNC(=N)N)C(=O)N[C@@H](Cc1ccc(O)cc1)C(N)=O)[C@@H](C)O)[C@@H](C)CC, also called compound No. 37) [Ac-[D-Cha24, Ala26, Ile28,31]-PYY(24-36)] , state its recorded GBA EC50 Ratio (vs PYY(3-36)), [35S]GTPγS. 4.6

Given [4Amb][Orn]AYINLITRQRY-NH2 (N-terminus assumed; SMILES CC[C@H](C)[C@H](NC(=O)[C@H](Cc1ccc(O)cc1)NC(=O)[C@H](C)NC(=O)[C@H](CCCN)NC(=O)c1ccc(CN)cc1)C(=O)N[C@@H](CC(N)=O)C(=O)N[C@@H](CC(C)C)C(=O)N[C@H](C(=O)N[C@H](C(=O)N[C@@H](CCCNC(=N)N)C(=O)N[C@@H](CCC(N)=O)C(=O)N[C@@H](CCCNC(=N)N)C(=O)N[C@@H](Cc1ccc(O)cc1)C(N)=O)[C@@H](C)O)[C@@H](C)CC, also called compound No. 10) [4-Aminomethylbenzoyl-[Orn25, Ala26, Ile28,31]-PYY(25-36)] , state its recorded GBA EC50 Ratio (vs PYY(3-36)), [35S]GTPγS. 18

The reported numbers originate from patent US20120172293A1.
